assay method text: Cytotoxicity against mouse BV2 cells assessed as cell viability at 20 uM by MTT assay relative to LPS-treated cells
Assay type: cell-based, BV-2
applied conditions: read-out: Activity
measured endpoint: viability at 20 µM (%)
Quick reminder: number only, in %, skip the unit.

// worked examples, viability at 20 µM included
O=C(/C=C/c1ccc(O)cc1)O[C@H]1[C@H](Oc2c(-c3ccc(O)cc3)oc3cc(O[C@@H]4O[C@H](CO)[C@@H](O)[C@H](O)[C@H]4O)cc(O)c3c2=O)O[C@H](CO)[C@@H](O)[C@@H]1O = 105
O=C(/C=C/c1ccc(O)cc1)O[C@H]1[C@H](Oc2c(-c3ccc(O[C@@H]4O[C@H](CO)[C@@H](O)[C@H](O)[C@H]4O)cc3)oc3cc(O)cc(O)c3c2=O)O[C@H](CO)[C@@H](O)[C@@H]1O [ALLIVICTOSIDE A] = 109

--- query ---
Please give the measured viability at 20 µM for this compound: COc1cc(/C=C/C(=O)O[C@H]2[C@H](Oc3c(-c4ccc(O[C@H]5O[C@@H](CO)[C@H](O)[C@@H](O)[C@@H]5O)c(O)c4)oc4cc(O[C@@H]5O[C@H](CO)[C@@H](O)[C@H](O)[C@H]5O)cc(O)c4c3=O)O[C@H](CO)[C@@H](O)[C@@H]2O)ccc1O [ALLIVICTOSIDE H]
105
